Test system: RXF 393 renal
experiment: NCI-60 one-dose screen, 48 h
testParameters: 10 µM unless noted
Compounds without any hit were thinned out: in the full panel of roughly 83,000, 20% have a hit. Active and inactive are the calls of the source. The calls were made as follows: active = growth percent below 10; inactive = the rest.
Your reply should match one of these outcome classes. active, inactive

Examples from the recorded data:
- CN(CSc1ccc(Cl)cc1)c1ccc(CSc2ccc(Cl)cc2)cc1: inactive
- COc1ccc(C2(Cl)c3ccccc3N(c3ccccc3)c3ccccc32)cc1: active

input: Tell me the recorded outcome of this test for O=C(NO)c1ccc(Cn2c(=O)n(-c3ccccc3)c(=O)c3ccccc32)cc1 .
output: active

input: Dear colleague, could you share the recorded outcome for Fc1cccc(-c2[nH]nc3nc(Nc4cccnc4)sc23)c1 when you have a moment?
output: inactive

input: Tell me the assay call for CCCCn1c(-c2ccc(O)cc2)cn2c3c(=O)[nH]c(=O)n(C)c3nc12 please.
output: inactive

input: In this assay, the call recorded for C=C(C)[C@@H]1CC[C@]2(c3nnc(-c4ccncc4)o3)CC[C@]3(C)[C@H](CC[C@@H]4[C@@]5(C)CCC(=O)NC(C)(C)[C@@H]5CC[C@]43C)[C@@H]12 was what?
output: inactive

input: How was NNC(=O)c1nc2ccccc2[nH]1 classified in this test?
output: inactive

input: Identify the outcome logged in this assay for the compound shown: O=C(/C=C/c1cccc2ccccc12)Nc1ncc(Cc2ccccc2)s1
output: active

input: For CCSc1sc(-c2ccc(C)cc2)nc1[P+](c1ccccc1)(c1ccccc1)c1ccccc1 , which call appears in the assay record?
output: active

input: How was Cn1cc(-c2nc(-c3c[nH]c4ncccc34)cs2)c2ccccc21 classified in this test?
output: inactive

input: Which outcome was assigned to COc1ccc2c(c1)c(-c1nc(-c3c[nH]c4ncccc34)cs1)cn2C in this test?
output: inactive
